testTarget: UniProt Q5IS53
Sequence (Q5IS53 1-532): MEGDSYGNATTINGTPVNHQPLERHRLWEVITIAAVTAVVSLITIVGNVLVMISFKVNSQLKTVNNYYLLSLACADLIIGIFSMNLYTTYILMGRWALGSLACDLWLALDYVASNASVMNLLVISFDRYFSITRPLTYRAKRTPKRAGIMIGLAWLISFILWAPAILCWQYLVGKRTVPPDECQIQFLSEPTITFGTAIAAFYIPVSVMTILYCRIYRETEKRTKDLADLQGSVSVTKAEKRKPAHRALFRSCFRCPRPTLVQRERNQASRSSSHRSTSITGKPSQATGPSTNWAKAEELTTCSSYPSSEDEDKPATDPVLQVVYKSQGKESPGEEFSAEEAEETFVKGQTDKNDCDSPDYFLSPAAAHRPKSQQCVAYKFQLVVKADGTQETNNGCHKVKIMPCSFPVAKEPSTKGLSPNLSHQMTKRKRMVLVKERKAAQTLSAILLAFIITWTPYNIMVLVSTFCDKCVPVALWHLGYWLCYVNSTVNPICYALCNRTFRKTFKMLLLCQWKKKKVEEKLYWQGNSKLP
methodDescription: Blockade of agonist-mediated calcium release via FLIPR assay (cM5)
experimentalParameters: CHO cells stably expressing cM5
experimentalReadout: Ki

| substanceSmiles | experimentalReadout | reportedValue |
| --- | --- | --- |
| COc1cc(NC(=O)CCN2CCC(OC(=O)Nc3ccccc3-c3ccccc3)CC2)c(Cl)cc1CNC[C@H](O)c1ccc(O)c2[nH]c(=O)ccc12 | Ki | < 10 nM |

The reported numbers originate from patent US8101766B2.
